Provenance of the data: patent US20240270821A1

# target_or_test_system: human glucagon receptor (human) (UniProt P47871)
# Sequence (P47871 26-477): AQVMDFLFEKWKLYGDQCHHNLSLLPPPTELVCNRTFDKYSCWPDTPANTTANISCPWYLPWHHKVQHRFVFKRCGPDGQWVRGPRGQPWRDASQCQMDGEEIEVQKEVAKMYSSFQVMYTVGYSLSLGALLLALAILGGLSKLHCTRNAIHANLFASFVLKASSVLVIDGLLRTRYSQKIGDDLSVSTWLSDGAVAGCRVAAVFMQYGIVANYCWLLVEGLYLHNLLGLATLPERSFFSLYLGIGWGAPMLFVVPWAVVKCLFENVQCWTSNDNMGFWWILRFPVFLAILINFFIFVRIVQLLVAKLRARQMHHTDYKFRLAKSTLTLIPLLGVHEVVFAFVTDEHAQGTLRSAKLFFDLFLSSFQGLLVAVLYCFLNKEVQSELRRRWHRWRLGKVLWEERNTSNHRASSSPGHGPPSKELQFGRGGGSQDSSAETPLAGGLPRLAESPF
# measurement_description: cell-based or functional assay
Non-standard residues stand in square brackets, D forms with d. No end group written: not given here. Phe(4-CN) = N#Cc1ccc(C[C@H](N)C(=O)O)cc1; αMePhe(2-F) = C[C@](N)(Cc1ccccc1F)C(=O)O; Aib = CC(C)(N)C(=O)O
Entries get a class label from measured cAMP Rel EC50, nM (1% HSA). See ranges: low value: < 400 nM; medium value: ≥ 400 nM and < 900 nM; high value: ≥ 900 nM

INSERT INTO measurements (binder, assigned_class) VALUES
  ('YXQGTXTSDXSIXLDKKAQXAFIEYLEEGGPSSGAPEPS (synthetic construct; SITE 2: note = 2-Aminoisobutyric Acid; SITE 6: note = alpha-methyl-2-fluoro-L-phenylalanine; SITE 10: note = 3-(4-Pyridyl)-L-alanine; SITE 13: note = alpha-methyl-leucine; SITE 17: note = Lysine is chemically modified through conjugation of the epsilon-amino group of the Lysine) [Example 443]', 'low value'),
  ('YXQGTFTSDFSXXLDKKAQXAFIEWLLEGGPSSGAPPPSGS (synthetic construct; SITE 2: note = 2-Aminoisobutyric Acid; SITE 12: note = L-ornithine; SITE 13: note = alpha-methyl-leucine; SITE 17: note = Lysine is chemically modified through conjugation of the epsilon-amino group of the Lysine side chain with (2-[2-(2-Amino-ethoxy)-ethoxy]-acetyl)-(gamma-Glu)) [Example 168]', 'high value'),
  ('YXQGTFTSDFSXXLDKKAQXAFIEYLLEXGESSGAPPPSGT (synthetic construct; SITE 2: note = 2-Aminoisobutyric Acid; SITE 12: note = L-ornithine; SITE 13: note = alpha-methyl-leucine; SITE 17: note = Lysine is chemically modified through conjugation of the epsilon-amino group of the Lysine side chain with (2-[2-(2-Amino-ethoxy)-ethoxy]-acetyl)2-(gamma-Glu)) [Example 180]', 'high value'),
  ('YXQGTFTSDXSXXLDKKAQXAFIEXLIEGGPSSGAPPPSGSE (acylated Lys (γGlu)2-C18 diacid; non-natural residues; C-terminal amide; synthetic construct; SITE 2: note = 2-Aminoisobutyric Acid; SITE 10: note = 3-(4-Pyridyl)-L-alanine; SITE 12: note = L-ornithine; SITE 13: note = alpha-methyl-leucine; SITE 17: note = Lysine is chemically modified through conjugation of the epsilon-amino group of the Lysine side chain with (gamma-Gl)) [Example 966]', 'medium value'),
  ('YXQGTFTSDFSXXLDKKAQXAFIEYLLEXGPSSGEPPPSGT (synthetic construct; SITE 2: note = 2-Aminoisobutyric Acid; SITE 12: note = L-ornithine; SITE 13: note = alpha-methyl-leucine; SITE 17: note = Lysine is chemically modified through conjugation of the epsilon-amino group of the Lysine side chain with (2-[2-(2-Amino-ethoxy)-ethoxy]-acetyl)2-(gamma-Glu)) [Example 167]', 'high value'),
  ('YXQGTXTSDYSIXLDKKAQXAFIEYLEEGGPSSGAPPPSE (synthetic construct; SITE 2: note = 2-Aminoisobutyric Acid; SITE 6: note = alpha-methyl-2-fluoro-L-phenylalanine; SITE 13: note = alpha-methyl-leucine; SITE 17: note = Lysine is chemically modified through conjugation of the epsilon-amino group of the Lysine side chain with (2-[2-(2-Amino-ethoxy)-et)) [Example 424]', 'medium value'),
  ('YXQGTXTSDYSILLDKKAQXAFIEYLEEGGPSSGAPPPSEG (synthetic construct; SITE 2: note = 2-Aminoisobutyric Acid; SITE 6: note = alpha-methyl-2-fluoro-L-phenylalanine; SITE 17: note = Lysine is chemically modified through conjugation of the epsilon-amino group of the Lysine side chain with (gamma-Glu)2-CO-(CH2)16-CO2H; SITE 20: note = 2-Aminoisobutyric) [Example 434]', 'medium value'),
  ('YXQGTXTSDXXIXLDXKAQXSFIEXLIEGGPSSGEPPPE (synthetic construct; SITE 2: note = 2-Aminoisobutyric Acid; SITE 6: note = alpha-methyl-2-fluoro-L-phenylalanine; SITE 10: note = 3-(4-Pyridyl)-L-alanine; SITE 11: note = alpha-methyl-L-serine; SITE 13: note = alpha-methyl-leucine; SITE 16: note = L-ornithine; SITE 17: note = Lysine is chemically mo) [Example 436]', 'low value'),
  ('Y[Aib]QGT[αMePhe(2-F)]TSD[Phe(4-CN)]SILLDKQAQKAFIQYLLEGGPSSGEPPPSEG-NH2 (not fully specified (residue 20)) [Example 353]', 'high value');
